# test target: T1, VEGF(8-109) (UniProt P15692 214-315)
# T1 construct: range 8-109; Covalently coupled to the BIACORE chip (EDC/NHS); also called vascular endothelial growth factor
# T1 sequence (looked up): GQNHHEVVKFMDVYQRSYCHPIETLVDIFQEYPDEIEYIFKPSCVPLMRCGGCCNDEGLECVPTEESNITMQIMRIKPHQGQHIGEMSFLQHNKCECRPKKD
# assay details: SPR (BIACORE-2000), Fab injected over immobilised VEGF(8-109), 25 C
Hi there, I'd appreciate the recorded kon for every entry that follows.
Answers are plain numbers, in M⁻¹ s⁻¹.

Recorded kon, per entry:
# binder, measurement name, endpoint unit, meas value
measured = [
    ("Y0261-6 Fab (Fab, V domains shown) VH: EVQLVESGGGLVQPGGSLRLSCAASGYTFTNYGMNWVRQAPGKGLEWVGWINTYTGEPTYAADFKRRFTFSLDTSKSTAYLQMNSLRAEDTAVYYCAKYPHYYLKDKKSHWYFDVWGQGTL VL: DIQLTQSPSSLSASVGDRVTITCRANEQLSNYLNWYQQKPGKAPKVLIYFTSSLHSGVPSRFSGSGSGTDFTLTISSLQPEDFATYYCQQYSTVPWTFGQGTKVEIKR", "kon", "M⁻¹ s⁻¹", 44000),
    ("Y0239-12 Fab (Fab, V domains shown) VH: EVQLVESGGGLVQPGGSLRLSCAASGYTFTNYGMNWVRQAPGKGLEWVGWINTYTGEPTYAADFKRRFTFSLDTSKSTAYLQMNSLRAEDTAVYYCAKYPHYYAHEKKSHWYFDVWGQGTL VL: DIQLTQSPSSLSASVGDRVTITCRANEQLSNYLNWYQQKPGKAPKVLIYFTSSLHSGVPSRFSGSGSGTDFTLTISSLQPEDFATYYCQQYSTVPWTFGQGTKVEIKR", "kon", "M⁻¹ s⁻¹", 57000),
]

Proceeding to the next binder to report its kon.
Name the reported kon value associated with the binder Y0241-6 Fab (Fab, V domains shown, Clone from library YC-86, made on the Y0192 template; The text names point mutations only at T28 and F29; The printed stretch ends in GIN, so residue 34 may also differ from the parent; this change is not applied here) VH: EVQLVESGGGLVQPGGSLRLSCAASGYDYTNYGINWVRQAPGKGLEWVGWINTYTGEPTYAADFKRRFTFSLDTSKSTAYLQMNSLRAEDTAVYYCAKYPHYYGSSHWYFDVWGQGTL VL: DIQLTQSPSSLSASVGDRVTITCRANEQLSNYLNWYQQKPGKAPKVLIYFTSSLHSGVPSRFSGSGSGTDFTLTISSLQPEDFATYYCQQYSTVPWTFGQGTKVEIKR
47000
